Molecular target: Protein translocase subunit SecA (Escherichia coli (strain K12)) (UniProt P10408)
Sequence (P10408 whole entry): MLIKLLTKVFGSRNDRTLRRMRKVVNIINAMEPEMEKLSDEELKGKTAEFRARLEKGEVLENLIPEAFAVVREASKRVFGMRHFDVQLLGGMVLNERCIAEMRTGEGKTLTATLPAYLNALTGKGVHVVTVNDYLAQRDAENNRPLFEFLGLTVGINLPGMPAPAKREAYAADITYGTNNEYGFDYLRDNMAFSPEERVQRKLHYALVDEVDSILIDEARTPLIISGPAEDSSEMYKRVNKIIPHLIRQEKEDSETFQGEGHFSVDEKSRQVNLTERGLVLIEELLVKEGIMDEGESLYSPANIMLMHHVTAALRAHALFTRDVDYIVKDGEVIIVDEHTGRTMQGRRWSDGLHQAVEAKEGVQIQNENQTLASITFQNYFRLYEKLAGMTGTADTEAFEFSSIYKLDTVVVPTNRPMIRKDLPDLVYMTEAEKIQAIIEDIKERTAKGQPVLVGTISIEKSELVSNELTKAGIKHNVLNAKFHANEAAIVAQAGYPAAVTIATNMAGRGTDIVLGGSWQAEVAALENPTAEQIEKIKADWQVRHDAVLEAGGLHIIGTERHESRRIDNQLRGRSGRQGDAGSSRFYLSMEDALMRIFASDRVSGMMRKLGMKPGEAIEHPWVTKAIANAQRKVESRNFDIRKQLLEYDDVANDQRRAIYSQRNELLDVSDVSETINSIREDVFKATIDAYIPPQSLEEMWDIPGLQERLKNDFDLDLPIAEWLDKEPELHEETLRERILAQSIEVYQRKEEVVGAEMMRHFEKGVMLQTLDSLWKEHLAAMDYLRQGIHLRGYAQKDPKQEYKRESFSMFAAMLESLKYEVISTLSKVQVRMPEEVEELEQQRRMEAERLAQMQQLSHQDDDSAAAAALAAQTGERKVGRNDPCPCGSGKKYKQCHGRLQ
Experiment: Assay to Identify E. coli SecA ATPase Inhibitors
Type: functional
Design: scale not given: direction of the effect not stated beside the values
Conditions: 30 µM
Results with a measured potency or affinity are listed apart.
As shown below, each of these compounds has a reported Percent Effect value.
Respond with the bare value in %.

Worked examples, 10 compounds total:
>>> observed_result("N#Cc1c(F)cccc1N1CCC(NS(=O)(=O)c2cccs2)CC1")
0.0864
>>> observed_result("CCOC(=O)c1sc2ccsc2c1CNC(=O)CC")
-4.75
>>> observed_result("CN(C)CCNC(=O)CNC(=O)N1CCc2c([nH]c3ccc(Cl)cc23)C1")
-4.87
>>> observed_result("CNC(=O)CS(=O)(=O)Cc1coc(-c2ccc(F)cc2)n1")
-2.82
>>> observed_result("CC(C)CCN1CCC2(CC1)CN(C(=O)c1cnccn1)CCO2")
-4.82
>>> observed_result("CC(C)c1nccn1-c1cccc(C2CCN(C)CC2)n1")
-4.43
>>> observed_result("Cc1nn(C)c(C)c1NC(=O)CN1CCc2c(nc(C(C)C)n2C)C1")
-0.874
>>> observed_result("CCOc1ccc(C2CC(=O)Nc3c2c(=O)nc2sccn32)cc1 (centres undefined)")
-6.79
>>> observed_result("Cn1cc(CN2C[C@@H]3COC[C@]3(COc3ccc(C#N)cn3)C2)cn1")
-0.614
>>> observed_result("Cc1cc(C(F)(F)F)nn1C(C)C(=O)Nc1ccncc1 (centres undefined)")
-1.07

Value of measured Percent Effect for the entry "CC(=O)N(C)CC(=O)Nc1cccc(N2CCN(CC3CC3)CC2)c1" : -6.27

Value of measured Percent Effect for the entry CNS(=O)(=O)c1cccc(C(C)NCc2nccn2C(C)C)c1 (centres undefined) : -0.324

Value of measured Percent Effect for the entry "Cc1nc(N2CCCCC2)ncc1-c1cc(O)[nH]n1" : -5.23

Value of measured Percent Effect for the entry "Cc1cnc(NC(=O)c2ccc(-n3ncc(C#N)c3N)cc2)s1" : -5.51

Value of measured Percent Effect for the entry "COCC(=O)N1CCCn2c(CN3CCCCC3)nnc2C1" : -0.412
